# study_target: FAP-expressing human WI-38 fibroblasts (Homo sapiens, UniProt Q12884)
# Construct: FAP-expressing human WI-38 fibroblasts (ECACC) were cultured in EMEM; host or cells: WI-38 human fibroblasts
# Sequence (Q12884 1-760): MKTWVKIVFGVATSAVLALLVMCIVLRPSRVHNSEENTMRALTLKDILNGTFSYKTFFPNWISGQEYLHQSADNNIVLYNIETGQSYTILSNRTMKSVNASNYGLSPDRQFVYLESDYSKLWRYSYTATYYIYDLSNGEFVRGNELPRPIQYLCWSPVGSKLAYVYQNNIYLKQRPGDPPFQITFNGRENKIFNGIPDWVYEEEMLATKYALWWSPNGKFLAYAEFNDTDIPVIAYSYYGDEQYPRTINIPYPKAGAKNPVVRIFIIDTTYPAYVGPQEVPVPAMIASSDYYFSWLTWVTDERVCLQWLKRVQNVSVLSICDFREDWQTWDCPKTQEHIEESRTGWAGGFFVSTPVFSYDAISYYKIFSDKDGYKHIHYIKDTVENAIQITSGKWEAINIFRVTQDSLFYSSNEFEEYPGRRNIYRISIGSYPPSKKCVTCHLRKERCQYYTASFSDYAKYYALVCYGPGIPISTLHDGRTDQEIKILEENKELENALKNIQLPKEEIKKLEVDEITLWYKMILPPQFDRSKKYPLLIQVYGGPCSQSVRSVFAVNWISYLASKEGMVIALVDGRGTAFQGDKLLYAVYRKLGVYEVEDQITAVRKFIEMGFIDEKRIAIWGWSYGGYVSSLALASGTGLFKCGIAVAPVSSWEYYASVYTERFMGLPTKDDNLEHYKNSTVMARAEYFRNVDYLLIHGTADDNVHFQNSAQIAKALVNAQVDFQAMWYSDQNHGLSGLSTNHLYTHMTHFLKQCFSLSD
# method: Competitive FACS binding assay
# details: pIC50 Category (FACS), competition with 3 nM Cy5-labeled compound, WI-38 fibroblasts, 4° C., 1 hour
Numbered stars: 1 amine (or outer) side, 2 acyl side, 3 side chain; on linkers, the order of the positions; unused ones are H or OH. Bridge positions count the residues as written; N and C are the ends. Square brackets hold non-standard residues; d marks the D form. Peptide text beside a SMILES is read from it. * marks the point of attachment. X19 = NC(=O)[C@H](CCCCNC(=O)CN1CCN(CC(=O)O)CCN(CC(=O)O)CCN(CC(=O)O)CC1)NC(=O)CCC(=O)NCCCOCCOCCNCCCN*; X1 = O=C(O)CN1CCN(CC(=O)O)CCN(CC(=O)N2CCN(Cc3cc(C[*:1])cc(C[*:2])c3)CC2)CCN(CC(=O)O)CC1; X2 = O=C(O)CN1CCN(CC(=O)O)CCN(CC(=O)NCCCOCCOCCOCCCN*)CCN(CC(=O)O)CC1; mXylylene = c1cc(C[*:1])cc(C[*:2])c1; Suc = O=C(CCC(=O)[*:2])[*:1]; Nle = CCCC[C@H](N)C(=O)O; Hexanoyl = CCCCCC(=O)*
experimental_endpoint: IC50

Guide cases for IC50, answers given:
- CCCC[C@H](NC(=O)CCC(=O)NCCCOCCOCCOCCCNC(=O)CN1CCN(CC(=O)O)CCN(CC(=O)O)CCN(CC(=O)O)CC1)C(=O)N[C@H]1CSCc2cccc(c2)CSC[C@@H](C(=O)N[C@@H](CC(=O)O)C(N)=O)NC(=O)[C@H](Cc2ccccc2)NC(=O)[C@H](CCC(N)=O)NC(=O)[C@H]([C@@H](C)O)NC(=O)[C@@H]2CCCN2C(=O)[C@@H]2CCCN2C1=O [3BP-3401] ({X2-Suc}-[Nle]CPPTQFCD-NH2; linker 2-8 via mXylylene): < 0.01 µM
- CCCCCC(=O)N[C@H]1CSCc2cccc(c2)CSC[C@@H](C(N)=O)NC(=O)[C@H](Cc2c[nH]c3ccccc23)NC(=O)[C@H](CCC(N)=O)NC(=O)[C@H]([C@@H](C)O)NC(=O)[C@@H]2CCCN2C(=O)[C@@H]2CCCN2C1=O [3BP-3408] (Hexanoyl-CPPTQWC-NH2; linker 1-7 via mXylylene): 0.01 to 0.0794 µM
- CSCC[C@H](NC(C)=O)C(=O)N[C@H]1CSCc2cccc(c2)CSC[C@@H](C(=O)N[C@@H](CC(=O)O)C(=O)N[C@@H](Cc2c[nH]cn2)C(=O)N[C@@H](Cc2ccccc2)C(=O)N[C@@H](CCCNC(=N)N)C(=O)N[C@@H](CC(=O)O)C(N)=O)NC(=O)[C@@H](Cc2ccccc2)NC(=O)[C@H](CCC(=O)O)NC(=O)[C@H]([C@@H](C)O)NC(=O)[C@@H]2CCCN2C(=O)[C@@H]2CCCN2C1=O [3BP-3180] (Ac-MCPPTE[dF]CDHFRD-NH2; linker 2-8 via mXylylene): 0.1 to 0.794 µM
- CCCCCC(=O)N[C@H]1CSCc2cccc(c2)CSC[C@@H](C(=O)N[C@@H](CC(=O)O)C(=O)NCCCNCCOCCOCCCNC(=O)CCC(=O)N[C@@H](CCCCNC(=O)CN2CCN(CC(=O)O)CCN(CC(=O)O)CCN(CC(=O)O)CC2)C(N)=O)NC(=O)[C@H](Cc2ccccc2)NC(=O)[C@H](CCC(=O)O)NC(=O)[C@H]([C@@H](C)O)NC(=O)[C@@H]2CCCN2C(=O)[C@@H]2CCCN2C1=O [3BP-3396] (Hexanoyl-CPPTEFCD-X19; linker 1-7 via mXylylene): < 0.01 µM
- C[C@@H](O)[C@@H]1NC(=O)[C@@H]2CCCN2C(=O)[C@@H]2CCCN2C(=O)[C@@H](NC(=O)[C@H](CCCCNC(N)=O)NC(=O)CCC(=O)NCCCOCCOCCOCCCNC(=O)CN2CCN(CC(=O)O)CCN(CC(=O)O)CCN(CC(=O)O)CC2)CSCc2cccc(c2)CSC[C@@H](C(=O)NCCC(=O)O)NC(=O)[C@H](Cc2ccccc2)NC(=O)[C@H](CCC(N)=O)NC1=O: > 1 µM

Let us move to another entry and its IC50.
Q: Enter reported IC50 observed with FAP-expressing human WI-38 fibroblasts (Homo sapiens, UniProt Q12884) for CCCCCC(=O)N[C@H]1CSCc2cc(cc(CN3CCN(C(=O)CN4CCN(CC(=O)O)CCN(CC(=O)O)CCN(CC(=O)O)CC4)CC3)c2)CSC[C@@H](C(=O)N[C@@H](CC(=O)O)C(N)=O)NC(=O)[C@H](Cc2ccccc2)NC(=O)[C@H](CCC(N)=O)NC(=O)[C@H]([C@@H](C)O)NC(=O)[C@@H]2CCCN2C(=O)[C@@H]2CCCN2C1=O [3BP-3407] (Hexanoyl-CPPTQFCD-NH2; linker 1-7 via X1)
A: < 0.01 µM
